system_name: human αvβ5 expressed on BaF3 cells (stably transfected with human αv and β5 subunits) (human, UniProt P06756 31-1048; P18084 24-799)
Sequence (P06756 31-1048 limits assumed, chain 1 of 2): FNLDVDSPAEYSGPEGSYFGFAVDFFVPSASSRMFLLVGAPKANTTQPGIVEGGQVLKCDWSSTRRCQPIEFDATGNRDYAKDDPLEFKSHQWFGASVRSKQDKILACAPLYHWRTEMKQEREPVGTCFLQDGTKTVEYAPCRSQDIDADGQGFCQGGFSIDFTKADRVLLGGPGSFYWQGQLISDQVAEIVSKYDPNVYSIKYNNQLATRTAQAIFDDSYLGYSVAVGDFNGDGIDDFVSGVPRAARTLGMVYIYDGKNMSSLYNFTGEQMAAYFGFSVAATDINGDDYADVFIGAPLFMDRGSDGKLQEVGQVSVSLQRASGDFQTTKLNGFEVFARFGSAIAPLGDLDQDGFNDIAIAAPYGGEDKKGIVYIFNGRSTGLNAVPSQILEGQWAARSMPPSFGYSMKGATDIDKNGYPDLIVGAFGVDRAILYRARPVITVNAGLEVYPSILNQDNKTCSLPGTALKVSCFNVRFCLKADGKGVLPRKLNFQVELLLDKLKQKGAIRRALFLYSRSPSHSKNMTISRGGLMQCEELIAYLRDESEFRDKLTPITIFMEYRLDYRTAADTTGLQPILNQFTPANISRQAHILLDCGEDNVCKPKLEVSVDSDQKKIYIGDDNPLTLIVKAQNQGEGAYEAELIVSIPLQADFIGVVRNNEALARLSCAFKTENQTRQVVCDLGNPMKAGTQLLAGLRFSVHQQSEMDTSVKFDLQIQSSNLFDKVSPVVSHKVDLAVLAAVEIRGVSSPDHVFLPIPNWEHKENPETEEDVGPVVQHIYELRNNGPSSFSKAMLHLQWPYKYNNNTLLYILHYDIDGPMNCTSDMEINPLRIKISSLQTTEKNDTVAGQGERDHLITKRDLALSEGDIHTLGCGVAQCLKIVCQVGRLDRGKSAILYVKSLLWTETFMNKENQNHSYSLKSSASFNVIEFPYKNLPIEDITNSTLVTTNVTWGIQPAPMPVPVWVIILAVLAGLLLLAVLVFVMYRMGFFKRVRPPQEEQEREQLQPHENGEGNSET
Sequence (P18084 24-799 limits assumed, chain 2 of 2): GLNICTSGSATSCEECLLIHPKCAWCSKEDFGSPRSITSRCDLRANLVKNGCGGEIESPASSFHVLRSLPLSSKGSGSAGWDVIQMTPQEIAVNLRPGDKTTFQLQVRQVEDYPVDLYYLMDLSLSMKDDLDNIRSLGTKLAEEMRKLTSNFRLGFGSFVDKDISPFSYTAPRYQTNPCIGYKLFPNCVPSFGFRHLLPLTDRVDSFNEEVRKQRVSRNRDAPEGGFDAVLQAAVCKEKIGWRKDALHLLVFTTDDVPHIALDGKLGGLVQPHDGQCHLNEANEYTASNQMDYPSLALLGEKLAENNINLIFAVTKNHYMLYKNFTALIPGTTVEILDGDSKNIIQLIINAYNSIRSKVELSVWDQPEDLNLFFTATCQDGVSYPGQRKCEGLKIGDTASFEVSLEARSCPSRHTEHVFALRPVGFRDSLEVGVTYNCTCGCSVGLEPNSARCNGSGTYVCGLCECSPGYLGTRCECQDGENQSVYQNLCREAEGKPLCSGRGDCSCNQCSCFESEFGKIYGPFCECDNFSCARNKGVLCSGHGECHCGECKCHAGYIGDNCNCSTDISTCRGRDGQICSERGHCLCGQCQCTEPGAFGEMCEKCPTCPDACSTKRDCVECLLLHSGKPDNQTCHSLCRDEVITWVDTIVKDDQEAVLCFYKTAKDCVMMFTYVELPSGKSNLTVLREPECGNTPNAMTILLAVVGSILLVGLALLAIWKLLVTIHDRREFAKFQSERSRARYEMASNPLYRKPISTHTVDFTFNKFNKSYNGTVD
protocol_summary: cell-based or functional assay
outcome_measure: VN adhesion inhibition, αvβ5-BaF3 (IC50, nM)
Give just the number in nM; leave the unit off.

Here's what some known entries look like.
Data request: // lookup VN adhesion inhibition, αvβ5-BaF3 (IC50, nM) for VH4/VL0 Agly-hIgG1(T299A) (antibody, V domains shown, also called H4/L0 (Agly-IgG1)) VH: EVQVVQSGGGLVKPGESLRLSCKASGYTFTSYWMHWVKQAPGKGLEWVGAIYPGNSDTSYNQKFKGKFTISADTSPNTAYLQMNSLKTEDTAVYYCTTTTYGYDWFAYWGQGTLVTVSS VL: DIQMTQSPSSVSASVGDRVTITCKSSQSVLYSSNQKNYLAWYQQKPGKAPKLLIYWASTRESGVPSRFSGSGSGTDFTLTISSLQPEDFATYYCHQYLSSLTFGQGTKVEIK
Data returned: 1.1

Data request: // lookup VN adhesion inhibition, αvβ5-BaF3 (IC50, nM) for VH0/VL1 Agly-hIgG1(T299A) (antibody, V domains shown, also called H0/L1) VH: EVQLVESGGGLVKPGGSLRLSCAASGYTFTSYWMHWVRQAPGKGLEWVGAIYPGNSDTSYNQKFKGRFTISRDDSKNTLYLQMNSLKTEDTAVYYCTTTTYGYDWFAYWGQGTLVTVSS VL: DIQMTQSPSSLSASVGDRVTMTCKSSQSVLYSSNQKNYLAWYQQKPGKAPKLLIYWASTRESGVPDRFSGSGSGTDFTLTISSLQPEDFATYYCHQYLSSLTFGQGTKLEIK
Data returned: 2.2

Data request: // lookup VN adhesion inhibition, αvβ5-BaF3 (IC50, nM) for VH2/VL0 Agly-hIgG1(T299A) (antibody, V domains shown, also called H2/L0) VH: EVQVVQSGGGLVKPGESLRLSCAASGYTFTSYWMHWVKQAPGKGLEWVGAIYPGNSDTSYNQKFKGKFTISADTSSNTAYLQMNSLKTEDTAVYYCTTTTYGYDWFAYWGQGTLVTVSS VL: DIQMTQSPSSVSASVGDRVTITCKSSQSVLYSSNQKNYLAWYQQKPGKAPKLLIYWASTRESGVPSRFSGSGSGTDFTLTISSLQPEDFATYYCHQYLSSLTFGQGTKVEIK
Data returned: 1.3

Data request: // lookup VN adhesion inhibition, αvβ5-BaF3 (IC50, nM) for VH5/VL0 Agly-hIgG1(T299A) (antibody, V domains shown, also called H5/L0) VH: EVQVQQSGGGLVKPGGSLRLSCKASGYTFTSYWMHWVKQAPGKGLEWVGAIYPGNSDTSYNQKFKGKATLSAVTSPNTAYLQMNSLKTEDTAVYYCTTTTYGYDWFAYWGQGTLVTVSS VL: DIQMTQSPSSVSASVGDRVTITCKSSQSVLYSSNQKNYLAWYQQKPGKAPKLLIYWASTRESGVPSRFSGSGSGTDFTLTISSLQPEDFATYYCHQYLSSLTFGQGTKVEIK
Data returned: 1

Next:
Data request: // lookup VN adhesion inhibition, αvβ5-BaF3 (IC50, nM) for VH4/VL2 Agly-hIgG1(T299A) (antibody, V domains shown, also called H4/L2 (Agly-IgG1)) VH: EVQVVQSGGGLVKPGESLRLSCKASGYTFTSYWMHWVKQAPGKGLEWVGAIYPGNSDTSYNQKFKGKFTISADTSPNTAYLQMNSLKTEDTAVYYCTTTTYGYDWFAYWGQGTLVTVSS VL: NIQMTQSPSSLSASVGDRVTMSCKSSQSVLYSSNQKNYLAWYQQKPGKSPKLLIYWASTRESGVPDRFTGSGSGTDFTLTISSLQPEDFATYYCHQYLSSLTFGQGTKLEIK
Data returned: 0.5
